- System: KM12 colon
- assay.summary: NCI tumour cell line growth inhibition, 48 h
readout.label: TGI

Solved entries (count: 2):
| molecule.smiles | TGI |
| --- | --- |
| CN(N=O)C(=O)Nc1c[nH]c(=O)[nH]c1=O | > 100 µM |
| O=C1c2ccccc2-c2c1c1ccccc1c(=O)n2Cc1ccco1 | > 100 µM |

For each entry beneath this line, provide reported TGI.
1. O=C(OCCN=C1c2ccccc2CCc2ccccc21)c1cc([N+](=O)[O-])cc([N+](=O)[O-])c1
2. O=C(O)c1ccc(S(=O)(=O)c2ccccc2)c([N+](=O)[O-])c1
3. CCOC(=O)C1(C(=O)OCC)C[C@]23OCCC(=O)[C@H]2[C@H]2C(=O)OC(C)(C)O[C@]23C1

1. > 31.6 µM
2. > 100 µM
3. > 100 µM

* * *

- Tested on: IGROV1 ovarian
- assay.summary: NCI tumour cell line growth inhibition, 48 h
I'd be grateful if you could share measured TGI for these entries.

Take each entry in turn and give its TGI.
1. CCOC(=O)C1(C(=O)OCC)C[C@]23OCCC(=O)[C@H]2[C@H]2C(=O)OC(C)(C)O[C@]23C1
2. C=C1C(=O)O[C@H]2[C@H]1CC/C(COC(=O)C(=O)c1c[nH]c3ccccc13)=C\CC[C@@]1(C)O[C@@H]21
3. CCCCCCCCCOC(=O)c1cnc(Cl)cn1
4. CCOC(=O)c1nc2cc(N3CCOCC3)c(F)cc2[nH]c1=O
5. S=c1ssc2c3ssc(=S)c3n(Cc3ccccc3)c12
6. CN(C)/[N+]([O-])=N/Oc1cc(Nc2cccc(C(=O)O)c2)c([N+](=O)[O-])cc1[N+](=O)[O-]

> 100 µM
4.39 µM
36 µM
> 100 µM
> 100 µM
> 100 µM

* * *

- Tested on: COLO 205 colon
- assay.summary: NCI tumour cell line growth inhibition, 48 h
readout.label: TGI

| compound | TGI |
| --- | --- |
| CCN1C(=O)C/C(=C\C(C)=O)Nc2ccccc21 | > 100 µM |
| COC(=O)c1ccccc1C1CN=NC12Cc1ccc3ccccc3c1C2=O (configuration not stated) | > 100 µM |
| CC(C)=CCC[C@]1(C)CC[C@]2(C)C3CCC(=C(C)C)[C@@H](CCCO)[C@]3(C)CC[C@@]2(C)C1 (some centres not stated) | > 100 µM |
| COc1cc(Nc2cnc3cc(C(F)(F)F)ccc3n2)cc(OC)c1OC | > 100 µM |
| CC(=O)N=C(N=Nc1c(O)[nH]c2ccc(C)cc12)NC(C)=O | > 100 µM |

Your task in this section: give TGI for each listed record.
1. O=C1c2ccccc2-c2c1c1ccccc1c(=O)n2Cc1ccco1
2. CCOC(=O)c1nc2cc(N3CCOCC3)c(F)cc2[nH]c1=O

1. > 100 µM
2. > 100 µM

Provide each entry's TGI from the list below.
1. S=CN1CCCCC1
2. COc1cc(NS(C)(=O)=O)ccc1NCc1cnc2ccc3[nH]c(C)ccc3c12
3. Cc1ccc(NC(=O)c2[nH]c(=S)nc(N)c2-c2ccccc2C)cc1C
4. CC1=C(C)C(=O)c2c(c(C(=O)c3ccccc3)c3nc4ccccc4n3c2C)C1=O
5. C[Si](C)(C)C#CCO[Si](C)(C)C
6. COc1ccc(OC)c(C2CCc3nc4nc(N)nc(N)c4cc3C2)c1 (configuration not stated)
7. CSc1ccc2c(cc1=O)[C@@H](NC(C)=O)CCc1cc(O)c(O)c(O)c1-2
8. c1ccc2c(c1)ccc1nc(-c3ccc4c(c3)OCO4)c3c(c12)CCCC3

1: > 100 µM; 2: > 100 µM; 3: > 100 µM; 4: > 100 µM; 5: > 100 µM; 6: 17.9 µM; 7: > 100 µM; 8: 41.7 µM

State recorded TGI for all listed compounds.
1. CCOC(=O)c1cc2cc(N(C(C)=O)C(C)=O)ccc2s1
2. Nc1c(C(=O)Nc2ccccc2)sc2nc3c(cc12)CCCCCC3
3. O=C(c1ccccc1)c1ccc(C(c2c(O)c3ccccc3oc2=O)c2c(O)c3ccccc3oc2=O)cc1
4. CCOC(=O)/C(C#N)=C/c1ccc2c(-c3c(OCC)ccc4cc(/C=C(\C#N)C(=O)OCC)ccc34)c(OCC)ccc2c1
5. Nc1ccccc1C#CC#Cc1ccccc1N
6. O=C1OC(c2ccco2)=N/C1=C\c1ccc(Cl)c(Cl)c1

> 100 µM
1.48 µM
> 73 µM
> 100 µM
75.7 µM
> 100 µM

Test system COLO 205 colon; read-out TGI; what value for N#CC1=C(N)Oc2cc3c(cc2C1c1cccs1)OCO3 (configuration not stated) ?
1.66 µM

* * *

- System: SK-MEL-28 melanoma
- assay.summary: NCI tumour cell line growth inhibition, 48 h
Provide the reported TGI of each item.
Numbers only, in µM.

| molecule | TGI (µM) |
| --- | --- |
| COc1ccc(OC)c(C2CCc3nc4nc(N)nc(N)c4cc3C2)c1 (stereo not given) | 6.34 |
| CCNc1nnc(CSc2nc(-c3ccccc3)c(-c3ccccc3)[nH]2)s1 | 36.1 |
| Cc1ccc(Nc2nc(NCCO)c3ccccc3n2)cc1C | 20.1 |

Note: attention shifts to another entry.
I would be grateful if you could share the reported TGI for C=C1C(=O)O[C@H]2[C@H]1CC/C(COC(=O)C(=O)c1c[nH]c3ccccc13)=C\CC[C@@]1(C)O[C@@H]21 .
4.23

* * *

- Test system: T-47D breast
- assay.summary: NCI tumour cell line growth inhibition, 48 h
Answer condition not met if TGI is under 40 µM, and condition met if it is 40 µM or more.

| compound | group |
| --- | --- |
| CNc1ncnc(Sc2nc(N)nc3nc[nH]c23)c1[N+](=O)[O-] | condition not met |
| S=c1[nH]nc(COc2ccc3c(c2)CCCC3)n1/N=C/c1ccc(Cl)cc1 | condition not met |

Test whether the compound CCCCCCCCCOC(=O)c1cnc(Cl)cn1 records TGI of 40 µM or higher.
condition met

Check the entry Cc1ccc(C)c(NC(=O)C(=O)C(c2cnc3ccc([N+](=O)[O-])cc3n2)[N+](=O)[O-])c1 (centres undefined) : does TGI equal or exceed 40 µM?
condition met

* * *

- Tested on: KM12 colon
- assay.summary: NCI tumour cell line growth inhibition, 48 h
For each record, write down the corresponding TGI.

Illustrative cases are given below, each with its answer.
| compound | TGI |
| --- | --- |
| COc1ccc2[nH]cc(CCNC(C)=O)c2c1 | > 100 µM |
| COC(CN(C)C(=O)C(C)NC(=O)c1ccccc1)OC (configuration not stated) | > 100 µM |
| O=C(CCN1CCN(c2cccc(Cl)c2)CC1)N1CCc2c([nH]c3ccccc23)C1c1cccnc1 (configuration not stated) | 15.9 µM |
| CCOC(=O)/C(C#N)=C/c1ccc2c(-c3c(OCC)ccc4cc(/C=C(\C#N)C(=O)OCC)ccc34)c(OCC)ccc2c1 | > 100 µM |
| CCNc1nnc(CSc2nc(-c3ccccc3)c(-c3ccccc3)[nH]2)s1 | 23.9 µM |
| COc1nc2c(OC)cccc2c(OC)c1C=O | > 100 µM |
| CN1C2CCC1CC(OC(c1ccccc1)c1ccccc1)C2 (configuration not stated) | 37.9 µM |
| C/C(=N\N=C(N)N)C(CN(CC(C)C)CC(C)C)C(=O)Nc1ccc(C)cc1C (configuration not stated) | > 100 µM |
| O=c1c2ccccc2nc2n1NC(c1c(Cl)cccc1Cl)N2c1cccc(Cl)c1 (configuration not stated) | > 100 µM |
| CS(=O)(=O)c1ccc(Oc2cc(F)cc(C#N)c2)c2c1[C@H](O)[C@H](F)[C@@H]2F | > 100 µM |

Return reported TGI values for all items listed beneath this line.
1. CC(C)=CCC[C@]1(C)CC[C@]2(C)C3CCC(=C(C)C)[C@@H](CCCO)[C@]3(C)CC[C@@]2(C)C1 (some centres not stated)
2. CSC(SC)=C1CC(=O)Nc2ccccc2C1=O
3. CN(C)c1ccc(-c2cc(=O)c3ccccc3[nH]2)cc1
4. Cc1ccc2c(c1)SSSSS2
5. C/C(=N/NC(=S)Nc1ccccc1Cl)c1ccccn1
6. CC(=O)N=C(N=Nc1c(O)[nH]c2ccc(C)cc12)NC(C)=O
7. CCC1=C(C)/C(=C/c2[nH]c(C)c(C(=O)CCCCC(=O)OC)c2C)N=C1c1ccc[nH]1
8. CCN1C(=O)C/C(=C\C(C)=O)Nc2ccccc21

1. > 100 µM
2. > 100 µM
3. > 100 µM
4. 34 µM
5. 18.7 µM
6. > 100 µM
7. > 77.4 µM
8. > 100 µM

Record TGI per entry; entries follow.
1. O=C(O)CC(C(=O)O)c1ccccc1[N+](=O)[O-] (configuration not stated)
2. CC(C(=O)N1C(=O)N(C(=O)C(C)C(O)c2ccccc2)C(c2ccccc2)C1c1ccccc1)C(O)c1ccccc1 (configuration not stated)
3. O=C(Cn1c(=O)ccn(C2OC(CO)C(O)C2F)c1=O)c1ccc(F)cc1 (configuration not stated)
4. O=C(Nc1ccc(S(=O)(=O)Nc2nccs2)cc1)c1cccnc1Nc1cccc(Cl)c1

["> 100 µM", "5.69 µM", "> 100 µM", "22.9 µM"]

Origin of measurements: PubChem BioAssay (NCI)
